These measurements were taken from patent US11166942B2.

System: ATF4
Assay: ATF4 expression inhibition assay (ATF4 5'UTR luciferase reporter, Tg-stressed HEK293T cells)
Type: cell-based, human
Conditions: Homo sapiens, HEK-293T, 3 h, 100 nM test compound, 100 nM thapsigargin, 3 hours, HEK293T ATF4 luciferase reporter; read-out: % ATF4 inhibition at 100 nM
Quantity kind: inhibition at 0.1 µM
Answer shape: numeric part, then the unit.

**Query** Look up inhibition at 0.1 µM for this molecule: `O=C(COc1ccc(Cl)c(F)c1)NN1CCC(NC[C@H](O)COc2ccc(Cl)c(F)c2)CC1`
**Result** 36.1%

* * *

Test system: ATF4
Assay: ATF4 expression inhibition assay (ATF4 5'UTR luciferase reporter, Tg-stressed HEK293T cells)
Type: cell-based, human
Conditions: Homo sapiens, HEK-293T, 3 h, 1 μM test compound, 100 nM thapsigargin, 3 hours, HEK293T ATF4 luciferase reporter; read-out: % ATF4 inhibition at 1 μM
Quantity kind: inhibition at 1 µM (%)
Write it as a number; the unit % goes unstated.

Previously resolved entries follow.
{"Compound": "O=C(COc1ccc(Cl)c(F)c1)NC1CCN(NC(=O)C2Cc3cc(Cl)ccc3O2)CC1 (stereo not drawn)", "Endpoint result": 90.5}
{"Compound": "O=C(COc1ccc(Cl)c(F)c1)NN1CCC(NC(=O)C2Cc3cc(Cl)ccc3O2)CC1 (stereo not drawn)", "Endpoint result": 88.5}
{"Compound": "O=C(NC1CCN(NCC(O)COc2ccc(Cl)c(F)c2)CC1)c1ccc2cc(Cl)ccc2n1 (stereo not drawn)", "Endpoint result": 8.5}

**Query** Write down the reported inhibition at 1 µM of O=C(COc1ccc(Cl)c(F)c1)NN1CCN(C[C@@H](O)COc2ccc(Cl)c(F)c2)CC1 (single isomer, unassigned) , test system: ATF4.
**Result** 100

**Query** Write down the reported inhibition at 1 µM of O=C(COc1ccc(Cl)c(F)c1)NN1CCN(C[C@H](O)COc2ccc(Cl)c(F)c2)CC1 (single isomer, unassigned) , test system: ATF4.
**Result** 100

**Query** Write down the reported inhibition at 1 µM of `O=C(COc1ccc(Cl)c(F)c1)NN1CCC(NC(=O)c2cc3cc(Cl)ccc3o2)CC1` , test system: ATF4.
**Result** 93.7

**Query** Write down the reported inhibition at 1 µM of `O=C(COc1ccc(Cl)c(F)c1)NN1CCC(NC[C@H](O)COc2ccc(Cl)c(F)c2)CC1` , test system: ATF4.
**Result** 69.8

**Query** Write down the reported inhibition at 1 µM of `O=C(NN1CCN(C[C@@H](O)COc2ccc(Cl)c(F)c2)CC1)c1cnc(C(F)F)cn1` , test system: ATF4.
**Result** 0

* * *

Tested on: ATF4
Test: ATF4 expression inhibition assay (ATF4 5'UTR luciferase reporter, Tg-stressed HEK293T cells)
Format: cell-based, human
Settings: Homo sapiens, HEK-293T, 3 h, read-out: % ATF4 inhibition at 100 nM
Method: The ATF4 reporter was prepared by fusing the human full length 5′UTR of ATF4 (NCBI Accession No. BC022088.2) upstream of the firefly luciferase coding sequence lacking the initiator methionine. […] Luciferase reactions were performed using Luciferase Assay System (Promega #E1501) as specified by the manufacturer. Luminescence was read with an integration time of 1 s and a gain of 110 using a Cytation-5 multi-mode microplate reader (BioTek). […]
Quantity kind: inhibition at 0.1 µM (%)
Write it as a number; the unit % goes unstated.

Previously resolved entries follow.
{"Compound": "O=C(COc1ccc(Cl)c([N+](=O)[O-])c1)NC1CCN(NC(=O)COc2ccc(Cl)c(F)c2)CC1", "Measurement units": "%", "inhibition at 0.1 µM": 91}
{"Compound": "O=C(NN1CCN(CC(O)COc2ccc(Cl)c(F)c2)CC1)c1ccc2cc(Cl)ccc2c1 (stereo not shown)", "Measurement units": "%", "inhibition at 0.1 µM": 89.3}
{"Compound": "O=C(NN1CCN(CCCOc2ccc(Cl)c(F)c2)CC1)C1CNc2cc(Cl)ccc2O1 (stereo not shown)", "Measurement units": "%", "inhibition at 0.1 µM": 51.5}

API: the following record is the query input.
**Query** Look up inhibition at 0.1 µM for this compound: `O=C(COc1ccc(Cl)c(F)c1)NN1CCN(CCCOc2ccc(Cl)c(F)c2)CC1`
**Result** 46.3
